Experimental system: Human α2δ-1 subunit of Cav2.2 calcium channel (Homo sapiens)
Experiment summary: biochemical
Type: binding
pKi: −log10 of the molar value.
Measured property: pKi

Compound	pKi
CCC[C@H](c1nc2ccc(Br)cc2c(=O)n1CC)N1CCN[C@H](CF)C1	> 6.30
CCCC(c1nc2cc(-c3ccncc3)ccc2c(=O)n1CC)N1C[C@@H](C)N[C@@H](C)C1 (some centres unmarked)	> 6.30
CCCC(c1nc2cc(NCC)ccc2c(=O)n1CC)N1C[C@@H](C)N[C@@H](C)C1 (some centres unmarked)	> 6.30
CCC[C@H](c1nc2ccc(C(NC)c3ccccc3)cc2c(=O)n1CC)N1C[C@@H](C)N[C@@H](C)C1 (some centres unmarked)	> 6.30
CCC[C@@H](c1nc2cc(F)c(Cl)cc2c(=O)n1CC)N1CCN[C@@H](C)C1	< 5.30
CCC[C@@H](c1nc2ccccc2c(=O)n1C)N1C[C@@H](C)N[C@@H](C)C1	5.30 to 6.30
CCC[C@@H](c1nc2ccc(Br)cc2c(=O)n1CC)N1CCN[C@@H](CF)C1	< 5.30

Here is the next item to consider.
Prompt line: Requested field: pKi. Item: CCCC(c1nc2cc(F)c(Br)cc2c(=O)n1CC)N1CCNCC1 (centres unmarked)
Response line: > 6.30

* * *

Experimental system: Human μ-opioid receptor (Homo sapiens)
Sequence (P35372 whole entry): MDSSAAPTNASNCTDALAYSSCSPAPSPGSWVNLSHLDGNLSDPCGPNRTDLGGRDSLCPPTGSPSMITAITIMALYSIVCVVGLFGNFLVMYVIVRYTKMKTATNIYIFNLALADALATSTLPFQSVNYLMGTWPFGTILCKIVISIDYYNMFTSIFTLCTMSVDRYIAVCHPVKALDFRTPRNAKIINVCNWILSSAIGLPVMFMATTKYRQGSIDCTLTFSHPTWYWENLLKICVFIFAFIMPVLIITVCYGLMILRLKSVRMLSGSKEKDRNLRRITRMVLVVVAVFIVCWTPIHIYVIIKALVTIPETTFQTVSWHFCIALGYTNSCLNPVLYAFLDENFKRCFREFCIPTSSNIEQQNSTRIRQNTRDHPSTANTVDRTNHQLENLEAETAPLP
Experiment summary: biochemical
Type: binding
pKi: −log10 of the molar value.
Measured property: pKi

Example compounds with recorded pKi:
Compound	Meas value
CCC[C@H](c1nc2ccncc2c(=O)n1CC)N1CCN[C@H](C)C1	< 6.30
CCC[C@@H](c1nc2ccc(Cl)cc2c(=O)n1CC)N1CCN[C@H](CF)C1	< 6.30
CCC[C@H](c1nc2ccc(Br)cc2c(=O)n1C)N1CCN[C@@H](C)C1	6.30 to 7.00
CCC[C@@H](c1nc2ccc(Br)cc2c(=O)n1CC)N1CCN[C@@H](CF)C1	< 6.30
CCC[C@@H](c1nc2cc(F)c(Br)cc2c(=O)n1CC)N1CCN[C@H](C)C1	6.30 to 7.00

Prompt line: Field: pKi (Human μ-opioid receptor (Homo sapiens)). Entry: CCC[C@@H](c1nc2cnc(C(F)(F)F)cc2c(=O)n1CC)N1CCN[C@@H](C)C1
Response line: < 6.30

Prompt line: Queued: CCC[C@@H](c1nc2ccc(NCC[C@]3(c4ccccn4)CCOC4(CCCC4)C3)cc2c(=O)n1CC)N1C[C@@H](C)N[C@@H](C)C1
Response line: < 6.30

Prompt line: Queued: CCCC(c1nc2ccc(CN(C)CC(C)C)cc2c(=O)n1CC)N1C[C@@H](C)N[C@@H](C)C1 (some centres unmarked)
Response line: < 6.30

* * *

Experimental system: Human α2δ-1 subunit of Cav2.2 calcium channel (Homo sapiens, UniProt P54289)
Sequence (P54289 25-1103): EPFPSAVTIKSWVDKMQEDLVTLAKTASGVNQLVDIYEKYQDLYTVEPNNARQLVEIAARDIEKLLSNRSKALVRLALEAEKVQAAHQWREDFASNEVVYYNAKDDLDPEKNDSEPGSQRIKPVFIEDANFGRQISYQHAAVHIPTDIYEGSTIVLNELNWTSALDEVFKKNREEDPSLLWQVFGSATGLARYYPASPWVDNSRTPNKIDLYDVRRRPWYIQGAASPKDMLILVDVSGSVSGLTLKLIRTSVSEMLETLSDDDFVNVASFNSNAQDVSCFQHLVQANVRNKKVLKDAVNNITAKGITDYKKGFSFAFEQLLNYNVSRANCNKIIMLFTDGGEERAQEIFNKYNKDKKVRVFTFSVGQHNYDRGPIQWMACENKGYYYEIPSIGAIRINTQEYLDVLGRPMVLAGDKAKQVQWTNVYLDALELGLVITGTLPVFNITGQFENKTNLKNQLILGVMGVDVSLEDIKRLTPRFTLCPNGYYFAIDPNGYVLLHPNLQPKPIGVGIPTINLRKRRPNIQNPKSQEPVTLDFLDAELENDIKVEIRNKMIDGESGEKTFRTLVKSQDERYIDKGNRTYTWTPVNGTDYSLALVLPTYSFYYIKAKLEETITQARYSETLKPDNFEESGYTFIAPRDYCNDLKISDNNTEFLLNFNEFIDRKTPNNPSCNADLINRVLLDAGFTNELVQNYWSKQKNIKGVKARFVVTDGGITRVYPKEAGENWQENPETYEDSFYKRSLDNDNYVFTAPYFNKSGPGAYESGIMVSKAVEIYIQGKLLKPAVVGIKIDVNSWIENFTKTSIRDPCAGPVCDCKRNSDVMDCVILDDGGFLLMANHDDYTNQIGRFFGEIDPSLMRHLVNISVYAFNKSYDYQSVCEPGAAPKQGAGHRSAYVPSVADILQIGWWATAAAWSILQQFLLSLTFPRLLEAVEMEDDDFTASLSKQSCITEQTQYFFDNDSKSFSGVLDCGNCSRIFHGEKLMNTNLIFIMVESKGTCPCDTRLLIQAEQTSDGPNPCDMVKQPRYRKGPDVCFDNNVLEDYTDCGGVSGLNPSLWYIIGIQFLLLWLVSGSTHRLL
Experiment summary: biochemical
Assay type: binding
Experimental parameters: read-out: α2δ-1 binding
Measured property: Ki

Compound	Experimental system	Ki
CCCC(c1nc2c(C)cc(Br)cc2c(=O)n1CC)N1C[C@@H](C)N[C@@H](C)C1 (stereo partly shown) [Example 20]	Human α2δ-1 subunit of Cav2.2 calcium channel (Homo sapiens, UniProt P54289)	> 5 µM
CCCC(C1=CCNCC1)c1nc2ccc(Br)cc2c(=O)n1CC (stereo not shown) [Example 188]	Human α2δ-1 subunit of Cav2.2 calcium channel (Homo sapiens, UniProt P54289)	0.5 to 5 µM
CCCC(c1nc2ccc(Br)cc2c(=O)n1CC(=O)O)N1C[C@@H](C)N[C@@H](C)C1 (stereo partly shown) [Example 126]	Human α2δ-1 subunit of Cav2.2 calcium channel (Homo sapiens, UniProt P54289)	> 5 µM
CCCC(c1nc2ccccc2c(=O)n1CCN(C)C)N1C[C@@H](C)N(C)[C@@H](C)C1 (stereo partly shown) [Example 131]	Human α2δ-1 subunit of Cav2.2 calcium channel (Homo sapiens, UniProt P54289)	> 5 µM
CCC[C@H](c1nc2ccc(N3C[C@H](C)OC4(CCNCC4)C3)cc2c(=O)n1CC)N1C[C@@H](C)N[C@@H](C)C1 [Example 153]	Human α2δ-1 subunit of Cav2.2 calcium channel (Homo sapiens, UniProt P54289)	0.5 to 5 µM

Prompt line: Requested field: Ki. Item: CCCC(c1nc2cc(N(CC)C(=O)OC(C)(C)C)ccc2c(=O)n1CC)N1C[C@@H](C)N[C@@H](C)C1 (stereo partly shown) [Example 26]
Response line: 0.5 to 5 µM

Prompt line: Queued: CCCC(c1nc2ccc(Br)cc2c(=O)n1CC)C1CCNCC1 (stereo not shown) [Example 187]
Response line: 0.5 to 5 µM

Prompt line: Queued: CCC[C@H](c1nc2ccc(F)c(F)c2c(=O)n1C)N1CCN[C@@H](C)C1 [Example 222]
Response line: 0.5 to 5 µM

Prompt line: Queued: CCCC(c1nc2ccccc2c(=O)n1CCN(C)CCc1ccccc1)N1C[C@@H](C)N[C@@H](C)C1 (stereo partly shown) [Example 129]
Response line: 0.5 to 5 µM

Prompt line: Queued: CCC[C@@H](c1nc2ccc(N3C[C@H](C)OC4(CCNCC4)C3)cc2c(=O)n1CC)N1C[C@@H](C)N[C@@H](C)C1 [Example 152]
Response line: 0.5 to 5 µM

Prompt line: Queued: CCCC(c1nc2ccccc2c(=O)n1CCN(C)CCCc1ccccc1)N1C[C@@H](C)N[C@@H](C)C1 (stereo partly shown) [Example 130]
Response line: 0.5 to 5 µM

Prompt line: Queued: CCCC(c1nc2ccc(Br)cc2c(=O)n1CCC(=O)OCC)N1C[C@@H](C)N[C@@H](C)C1 (stereo partly shown) [Example 122]
Response line: 0.5 to 5 µM

Prompt line: Queued: CCC[C@@H](c1nc2ccccc2c(=O)n1CC)N1C[C@@H](C)N[C@@H](C)C1 [Example 33]
Response line: 0.5 to 5 µM

Prompt line: Queued: CCC[C@H](c1nc2c(F)cc(OC)c(Br)c2c(=O)n1CC)N1CCNCC1 [Example 40]
Response line: 0.5 to 5 µM

Prompt line: Queued: CCC[C@@H](c1nc2c(F)cc(OC)c(Br)c2c(=O)n1CC)N1CCNCC1 [Example 39]
Response line: > 5 µM

Prompt line: Queued: CCCC(c1nc2c(Br)c(OC)ccc2c(=O)n1CC)N1C[C@@H](C)N[C@@H](C)C1 (stereo partly shown) [Example 5]
Response line: 0.5 to 5 µM
